FYI, the data here is from patent US20250092065A1.

test system: Target C; assay: RT-qPCR canonical junction panel assay, Target C mRNA; type: cell-based; details: Table 4, read-out: Target C IC50 (decrease in CJ mRNA levels)
Measured metric: IC50

CN[C@H]1CCN(c2ccc3nc(-c4cc(C#N)c5nc(C)cn5c4)ncc3n2)C1 : 1 to 10 µM
Cc1cn2cc(-c3ccc4cc(N5CCNCC5)cc(F)c4n3)cc(F)c2n1 : 0.1 to 1 µM
Cc1nc2c(F)c(O)c(-c3ccc4nc(N5CCC(NC6CCC6)C5)ccc4n3)cc2o1 (stereo not shown) : < 0.1 µM

Let us examine a further case.
Tell me its IC50 on Target C: Cc1nc2cc(O)c(-c3ccc4nc(N5CC[C@@H](NC6(CF)CC6)C5)ccc4n3)cc2o1 (single isomer, unassigned) < 0.1 µM

----------
System: MYB mRNA
Test: RT-qPCR splicing assay, MYB mRNA canonical (CJ) and alternative (AJ) junction
Assay type: cell-based, human
Details: Homo sapiens, MYB canonical junction mRNA, RT-qPCR; read-out: MYB CJ (decrease in CJ mRNA levels, IC50)
Description: Compounds described herein were used to modulate RNA transcript abundance in cells. The expression of a target mRNA was measured by detecting the formation of an exon-exon junction in the canonical transcript (CJ). A compound mediated exon-inclusion event was detected by observing an increase in formation of a new junction with an alternative exon (AJ). Real-time qPCR assays were used to detect these splicing switches and interrogate the potency of various compounds towards different target genes. […]
pIC50: −log10 of the molar value.
Measured metric: pIC50

Cn1cc2cc(-c3ccc4nc(C5CCNCC5)ccc4n3)c(O)c(F)c2n1 [Compound 102] : > 7.00
CNC(=O)c1nc(-c2cc3cn(C)nc3c(C)c2O)nc2ccc(N3C[C@@H](C)N[C@@H](C)C3)nc12 [Compound 534] : 6.00 to 7.00

Quick one: give measured pIC50 for Cc1nc2c(C)c(O)c(-c3ccc4nc(N5CC[C@@H](NCC6CC6)C5)ccc4n3)cc2o1 (single isomer, unassigned) [Compound 295] > 7.00

Report pIC50, nothing else, for this molecule: Cc1c(O)c(-c2ccc3nc(N4CCC(NC(C)C)C4)ccc3n2)cc2cn(C)nc12 (centres unmarked) [Compound 318] > 7.00

Note down pIC50 recorded for CNC(=O)c1nc(-c2cc3cn(C)nc3c(F)c2O)nc2ccc(N3C[C@@H](C)N[C@H](C)C3)cc12 (single isomer, unassigned) [Compound 668] > 7.00

Indicate the recorded pIC50 value for this molecule: Cc1c(O)c(-c2ccc3nc(N4CC[C@H](NC(C)C)C4)ccc3n2)cc2cn(C)nc12 [Compound 320] > 7.00

Read the entry CN[C@H]1CCN(c2ccc3nc(-c4cc(F)c5nc(C)cn5c4)ncc3n2)C1 [Compound 332] and write its reported pIC50. 6.00 to 7.00

----------
system: HTT; assay: HiBiT protein abundance assay, HTT (K562 HiBiT knock-in); assay type: cell-based, human; details: HiBiT knock-in K562 cells, 24 hours, top dose 10 μM
Measured metric: IC50

# example entries with known answers
Cc1nc2cc(O)c(-c3ccc4nc([C@H]5CCNC6(CC6)C5)ccc4n3)cc2o1 (single isomer, unassigned) : < 100 nM
Cc1nc2cc(O)c(-c3ccc4nc(N5C[C@@H](C)N[C@@H](C)C5)ccc4n3)cc2o1 : 100 to 1000 nM
CN[C@H]1CCN(c2cc3c(Cl)cc(-c4cc5cn(C)nc5c(C)c4O)nc3cc2C)C1 : > 10000 nM

Retrieve IC50 measured for CC(=O)c1nc(-c2cc3cn(C)nc3c(F)c2O)nc2ccc(N3CCNCC3)cc12 [Compound 513, 2,2,2-trifluoroacetate] and print it. 100 to 1000 nM

Supply reported IC50 belonging to this molecule: Cc1nc2c(C)c(O)c(-c3ccc4nc(N5CC[C@H](NC6CCC6)C5)ccc4n3)cc2o1 < 100 nM

Read off the recorded IC50 for CN[C@@H]1CCN(c2ccc3nc(-c4cc5cn(C)nc5c(C)c4O)ncc3n2)C1 (single isomer, unassigned) 100 to 1000 nM

Supply IC50 value. Item: C[C@@H]1CN(c2ccc3nc(-c4cc5cn(C)nc5c(F)c4O)nc(C#N)c3c2)C[C@H](C)N1 100 to 1000 nM

Provide IC50 value for the following molecule: CN[C@@H]1CCN(c2ccc3nc(-c4cc5cn(C)nc5c(C)c4O)ncc3c2)C1 (single isomer, unassigned) < 100 nM

----------
The following molecules are listed with their measured IC50 values.
tested on: MYB mRNA; experiment: RT-qPCR splicing assay, MYB mRNA canonical (CJ) and alternative (AJ) junction; type: cell-based, human; conditions: Homo sapiens, MYB canonical junction mRNA, RT-qPCR; read-out: MYB CJ (decrease in CJ mRNA levels, IC50)

CN[C@@H]1CCN(c2ccc3nc(-c4cc5cn(C)nc5c(C)c4O)ncc3n2)C1 (single isomer, unassigned) : < 100 nM
Cc1nc2c(C)c(O)c(-c3ccc4nc(N5CC[C@H](N[C@H]6C[C@H](F)C6)C5)ccc4n3)cc2o1 (single isomer, unassigned) : < 100 nM

# ---- query molecule ----
Under MYB mRNA: report IC50 of CCNC1CCN(c2ccc3nc(-c4cc5cn(C)nc5cc4O)ccc3n2)CC1 . 1000 to 10000 nM

----------
tested on: Target C; assay: RT-qPCR canonical junction panel assay, Target C mRNA; assay type: cell-based; details: Table 4, read-out: Target C IC50 (decrease in CJ mRNA levels)
Measured metric: IC50

Reference set, count: 5
Cc1nc2cc(O)c(-c3ccc4nc(N5CCC(NCC6CC6)C5)ccc4n3)cc2o1 (centres unmarked) [Compound 389] : 100 to 1000 nM
CNC(=O)c1nc(-c2cc3cn(C)nc3c(C)c2O)nc2ccc(N3C[C@@H](C)N[C@@H](C)C3)nc12 : > 10000 nM
Cc1c(O)c(-c2ncc3nc(N4CCNCC4)ccc3n2)cc2cn(C)nc12 : 1000 to 10000 nM
COc1c(-c2ccc3nc(N4CCC(NC(C)(C)C)C4)ccc3n2)cc2c[nH]nc2c1C (centres unmarked) : > 10000 nM
Cc1cn2nc(-c3ncc4cc(N5C[C@H](C)N[C@@H](C)C5)ccc4n3)cc(C)c2n1 (single isomer, unassigned) : > 10000 nM

Write IC50 of Cc1c(O)c(-c2ccc3nc(N4CC[C@@H](NC(C)C)C4)ccc3n2)cc2cn(C)nc12 (single isomer, unassigned) ; system used: Target C < 100 nM

System Target C. Read-out IC50. Item CN(C)C1CCN(c2ccc3nc(-c4cc5cn(C)nc5c(F)c4O)ncc3c2)CC1 . Report value. 1000 to 10000 nM

Report value: IC50, system: Target C, compound: C[C@H]1CN(c2cc(F)c3nc(-c4cc(F)c5nn(C)cc5c4)ccc3c2)CCN1 (single isomer, unassigned) 100 to 1000 nM

Give the observed IC50 of C[C@@H]1CN(c2ccc3nc(-c4cc5cn(C)nc5c(F)c4O)ncc3c2)C[C@@H](C)N1 for Target C. 1000 to 10000 nM

----------
test system: HTT; test: HiBiT protein abundance assay, HTT (K562 HiBiT knock-in); assay type: cell-based, human; conditions: HiBiT knock-in K562 cells, 24 hours, top dose 10 μM
pIC50: −log10 of the molar value. Where a name gives a salt, the structure may show the parent alone.
pIC50 by entry:

Study these solved cases before continuing.
Cn1cc2cc(-c3ccc4nc([C@H]5CCNC6(CC6)C5)ccc4n3)c(O)cc2n1 (single isomer, unassigned) : > 7.00
C[C@@H]1CN(c2ccc3nc(-c4cc5cn(C)nc5c(F)c4O)nc(-c4nccs4)c3c2)C[C@H](C)N1 : 5.00 to 6.00

Specify reported pIC50 for the molecule shown: Cc1nc2c(C)c(O)c(-c3ccc4nc(N5CC[C@H](NCC6CC6)C5)ccc4n3)cc2o1 (single isomer, unassigned) > 7.00

Return the recorded pIC50 value; entry: Cc1c(O)c(-c2nc(C(=O)O)c3cc(N4CCNCC4)ccc3n2)cc2cn(C)nc12 < 5.00

Quote pIC50 reported for Cc1c(O)c(-c2cc(Cl)c3cc(N4CCNCC4)cc(C)c3n2)cc2cn(C)nc12 [Compound 482, hydrochloride] please. 6.00 to 7.00

Respond only with pIC50 recorded for Cc1c(O)c(-c2cc(C(C)O)c3nc(N4CCNCC4)ccc3n2)cc2cn(C)nc12 (stereo not drawn) < 5.00

----------
test system: Target C; experiment: RT-qPCR canonical junction panel assay, Target C mRNA; format: cell-based; details: Table 4, read-out: Target C IC50 (decrease in CJ mRNA levels)
pIC50: −log10 of the molar value.
Entries and their pIC50

Consider the worked cases shown below.
CCNC(=O)c1nc(-c2cc3cn(C)nc3c(C)c2O)nc2ccc(N3CCNCC3)cc12 : 6.00 to 7.00
C[C@H]1CN(c2cc(F)c3nc(-c4cc(F)c5nn(C)cc5c4)ccc3c2)C[C@H](C)N1 (single isomer, unassigned) : 6.00 to 7.00
CNC(=O)c1nc(-c2cc3cn(C)nc3c(C)c2O)nc2ccc(N3CC[C@@H](NC)C3)cc12 : > 7.00
Cn1cc2cc(-c3ccc4nc([C@@H]5CCNC6(CC6)C5)ccc4n3)c(O)cc2n1 (single isomer, unassigned) : 6.00 to 7.00
Cc1nc2c(F)cc(-c3ncc4cc(N5C[C@H](C)N[C@@H](C)C5)ccc4n3)cn2c1F (single isomer, unassigned) : 5.00 to 6.00

Give the measured pIC50 for Cn1cc2cc(-c3ncc4nc(C5CCNCC5)ccc4n3)c(O)c(C#N)c2n1 5.00 to 6.00

Note pIC50 for the compound shown: Cc1c(O)c(-c2ncc3nc(N4CCC5(CCN5)C4)ccc3n2)cc2cn(C)nc12 (centres unmarked) 6.00 to 7.00
